Conditions: in ethanol, 278.15 K
PROPERTY_NAME: solubility (mole fraction)
// keep it numeric: no unit symbol after the value

The reported value for "O=[N+]([O-])c1cccc(Cl)c1Cl" in terms of solubility (mole fraction) is 0.013

###

Details: in methanol, 293.15 K
PROPERTY_NAME: solubility (mole fraction)

# solubility (mole fraction) of "O=[N+]([O-])c1cccc(Cl)c1Cl" = 0.0258

###

Conditions: in ethanol, 295.65 K
PROPERTY_NAME: solubility (mole fraction)
Lab note: record the figure alone, no unit after it.

// solubility (mole fraction) lookup, compound = "O=[N+]([O-])c1cccc(Cl)c1Cl" , result: 0.0322

Numbers sourced from BigSolDB 2.1.
